- Assay method text: Anodic potential of the compound at pH 10.20 by differential pulse voltammetry
- Type: physicochemical
- Settings: pH 10.2
Square brackets hold non-standard residues; d marks the D form. Peptide text beside a SMILES is read from it. Aib = CC(C)(N)C(=O)O
Recorded endpoint: Activity (V)

INSERT INTO assay_data (molecule, recorded_endpoint, number) VALUES
  ('CC(C)[C@H](NC(=O)[C@@H](NC(=O)C(C)(C)N)C(C)C)C(=O)N[C@@H](Cc1ccc(O)cc1)C(=O)N1CCC[C@H]1C(=O)N[C@@H](Cc1c[nH]c2ccccc12)C(=O)N[C@H](C(=O)N[C@@H](CCC(N)=O)C(N)=O)[C@@H](C)O (H-[Aib]VVYPWTQ-NH2)', 'Activity', 0.03),
  ('CC(C)[C@H](N)C(=O)N[C@H](C(=O)N[C@@H](Cc1ccc(O)cc1)C(=O)N1CCC[C@H]1C(=O)N[C@@H](Cc1c[nH]c2ccccc12)C(=O)N[C@H](C(=O)N[C@@H](CCN)C(N)=O)[C@@H](C)O)C(C)C', 'Activity', 0);
